Reference source: ChEMBL document CHEMBL1142793

SYSTEM TESTED: Neuropeptide Y receptor type 5 (Homo sapiens, UniProt Q15761)
Sequence (Q15761 whole entry): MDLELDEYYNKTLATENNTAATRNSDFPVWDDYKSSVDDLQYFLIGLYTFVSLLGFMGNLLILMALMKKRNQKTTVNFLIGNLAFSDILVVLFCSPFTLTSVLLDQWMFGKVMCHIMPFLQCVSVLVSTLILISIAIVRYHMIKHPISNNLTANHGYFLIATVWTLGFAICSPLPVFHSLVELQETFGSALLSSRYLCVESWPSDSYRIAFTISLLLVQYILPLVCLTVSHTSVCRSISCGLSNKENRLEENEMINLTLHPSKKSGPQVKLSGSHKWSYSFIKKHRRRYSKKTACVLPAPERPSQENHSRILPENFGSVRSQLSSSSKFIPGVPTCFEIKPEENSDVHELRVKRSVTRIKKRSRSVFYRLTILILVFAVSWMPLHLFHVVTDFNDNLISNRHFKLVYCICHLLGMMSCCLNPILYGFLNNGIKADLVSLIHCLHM
PROTOCOL NOTES: Inhibitory activity against neuropeptide Y receptor type 5 by using [125I]PYY as radioligand expressed in COS-1 cells
ENDPOINT: IC50 (µM)

Below, 2 compounds whose answers are already recorded.
Please provide the recorded IC50 for CN(C)c1nc(NCC2CCC(CNCc3ccc(Br)cc3OC(F)(F)F)CC2)nc2ccccc12 (stereo not given) , tested on Neuropeptide Y receptor type 5 (Homo sapiens, UniProt Q15761).
0.56

Neuropeptide Y receptor type 5 (Homo sapiens, UniProt Q15761) / IC50 / CN(C)c1nc(NCC2CCC(CN(C)S(=O)(=O)c3ccc(Br)cc3OC(F)(F)F)CC2)nc2ccccc12 (stereo not given) : value?
0.46

[a] CN(C)c1nc(N[C@H]2CC[C@@H](NC(=O)c3ccc(F)c(F)c3)CC2)nc2ccccc12
[b] CN(C)c1nc(NCC2CCC(CNC(=O)c3ccc(Br)cc3OC(F)(F)F)CC2)nc2ccccc12 (stereo not given)
Could you check which of a and b has a smaller value for IC50? Give the label of your selection.
b

* * *

Species on record: Homo sapiens
PROTOCOL NOTES: Selective ratio against Alpha2A adrenergic receptor to that of MCH
ENDPOINT: Selectivity

So what's the measured Selectivity for this one? `CN(C)c1nc(N[C@H]2CC[C@@H](NC(=O)c3ccc(Cl)c(Cl)c3)CC2)nc2ccccc12`
9.4

Give its Selectivity value. Item: `Cc1cccc(C(=O)N[C@H]2CC[C@@H](Nc3nc(N(C)C)c4ccccc4n3)CC2)c1`
24

# input molecule: `CN(C)c1nc(N[C@H]2CC[C@@H](NC(=O)c3cccc(C(F)(F)F)c3)CC2)nc2ccccc12` ; wanted: its Selectivity
4

Endpoint output: Selectivity of `CN(C)c1nc(N[C@H]2CC[C@@H](NC(=O)c3cccc([N+](=O)[O-])c3)CC2)nc2ccccc12` . Value?
14

Bench note: what Selectivity did `COc1cc(OC)cc(C(=O)N[C@H]2CC[C@@H](Nc3nc(N(C)C)c4ccccc4n3)CC2)c1` show?
36

[a] CN(C)c1nc(N[C@H]2CC[C@@H](NC(=O)c3cccc(Cl)c3)CC2)nc2ccccc12
[b] CN(C)c1nc(NC2CCC(NC(=O)c3ccc(Br)cc3OC(F)(F)F)CC2)nc2ccccc12 (cis isomer)
Min Selectivity? a | b Mark your selection by writing its label.
b
(b: 2.4, a: 17)

[a] CN(C)c1nc(N[C@H]2CC[C@@H](NC(=O)c3cccc(C#N)c3)CC2)nc2ccccc12
[b] CN(C)c1nc(N[C@H]2CC[C@@H](NC(=O)c3ccc(F)c(F)c3F)CC2)nc2ccccc12
From the items above, decide which of a and b has the lower Selectivity reading. Please reply using the label of the selected record.
b
(b: 5.3, a: 15)

[1] CN(C)c1nc(N[C@H]2CC[C@@H](NC(=O)c3ccc(F)cc3)CC2)nc2ccccc12
[2] CN(C)c1nc(N[C@H]2CC[C@@H](NC(=O)c3cccc(Br)c3)CC2)nc2ccccc12
Quick one: lower Selectivity, 1 or 2 ? # reply format: chosen label
2
